Answer each item with its documented Daily amount released into the atmosphere.
# RUN_DESCRIPTION: Estimated amounts released into the atmosphere from the thermal diffuser
# Assay type: physicochemical
# SETTINGS: 5% Formula (2d), at 100° C.
Note: unit mg is implicit; provide only the numeric part.

Daily amount released into the atmosphere reading for CCCCC/C=C\C/C=C\CCCCCCCC(=O)O [Linoleic acid] : 5.1

Field Daily amount released into the atmosphere (entry C/C=C(\C)C1OCC(COCCCCCCCCCCCC/C=C\CCCCCCCC)O1 (stereo not drawn) [C22:1 AKG] ) reads 0.14

Note to self: Daily amount released into the atmosphere recorded for CC=C(C)C=O [2-Methyl-2-butenal, 2-methyl-2-butenal] was 36
